experiment: Biodisposition of JV-DE1 and JV-MD2 delivered via NIODP (periorbital skin) in non-human primates; format: in vivo, cynomolgus monkeys; details: cynomolgus, cynomolgus monkey, cornea of the dosed left eye (OS), topical; JV-MD2; monkey; NIODP OS; 6747 μg/eye; 24 h; endogenous BLQ; read-out: Drug in OS Tissues, Cornea
observed_property: concentration at 24 h (ng/g)
Could you give me the number in ng/g? Just the number is fine.

Inquiry: Fill in: concentration at 24 h of CC/C=C\C/C=C\C/C=C\C/C=C\C/C=C\C/C=C\CCC(=O)O [JV-MD2, cis-4,7,10,13,16,19-docosahexaenoic acid] is ___
Reply text: 26000

----------
assay: Biodisposition of JV-DE1 eye drops in New Zealand rabbits (LC-MS/MS of plasma and ocular tissues); type: in vivo; settings: New Zealand, anterior sclera, topical or ocular, 120 ug; rabbit; eye drop 120 µg/eye; read-out: Cmax in anterior sclera
observed_property: Cmax (ng/g)
Please give a number only; it is taken to be in ng/g.

Inquiry: Sample CC(C)Oc1ccc(Cc2ccc(NC3=NCCN3)cc2)cc1 [JV-DE1] — what was its Cmax?
Reply text: 1790

----------
experiment: Biodisposition of JV-DE1 eye drops in New Zealand rabbits (LC-MS/MS of plasma and ocular tissues); assay type: in vivo; conditions: New Zealand, ciliary body/iris, topical, 120 µg/eye; rabbit; single eye drop 120 μg/eye OD; 0.5 h; read-out: Drug in OD Tissues, Ciliary body/iris
observed_property: concentration at 0.5 h (ng/g)
Write the value in ng/g as a bare number.

Inquiry: // query concentration at 0.5 h value for entry CC(C)Oc1ccc(Cc2ccc(NC3=NCCN3)cc2)cc1 [JV-DE1]
Reply text: 105

----------
assay: Biodisposition of JV-DE1 eye drops in New Zealand rabbits (LC-MS/MS of plasma and ocular tissues); type: in vivo; conditions: New Zealand, retina, topical, 120 µg/eye; rabbit; single eye drop 120 μg/eye OD; 6 h; read-out: Drug in OD Tissues, Retina
observed_property: concentration at 6 h (ng/g)
Give a bare numeral; the unit ng/g is implied.

Inquiry: Find the recorded concentration at 6 h belonging to CC(C)Oc1ccc(Cc2ccc(NC3=NCCN3)cc2)cc1 and report it.
Reply text: 58.9

----------
experiment: Biodisposition of JV-DE1 eye drops in New Zealand rabbits (LC-MS/MS of plasma and ocular tissues); type: in vivo; conditions: New Zealand, posterior sclera, topical or ocular, 120 ug; rabbit; eye drop 120 µg/eye; read-out: Cmax in posterior sclera
observed_property: Cmax (ng/g)
Response body: numeric value in ng/g, unit text excluded.

Inquiry: Quick one: Cmax of CC(C)Oc1ccc(Cc2ccc(NC3=NCCN3)cc2)cc1 ?
Reply text: 240

----------
assay: Biodisposition of JV-DE1 and JV-MD2 delivered via NIODP (periorbital skin) in non-human primates; format: in vivo, cynomolgus monkeys; conditions: cynomolgus, cynomolgus monkey, vitreous humor, topical; JV-MD2; monkey; NIODP OS; 6568 μg/eye; 0.5 h; BLQ given a value of 0, LLOQ 0.5 µg/mL; read-out: Drug in OS Tissues, Vitreous humor
observed_property: concentration at 0.5 h (ng/g)
Form entry: value (ng/g) — number only.

Inquiry: concentration at 0.5 h for CC/C=C\C/C=C\C/C=C\C/C=C\C/C=C\C/C=C\CCC(=O)O [JV-MD2, cis-4,7,10,13,16,19-docosahexaenoic acid] ?
Reply text: 0

----------
test: Biodisposition of JV-DE1 and JV-MD2 delivered via NIODP (periorbital skin) in non-human primates; type: in vivo, cynomolgus monkeys; conditions: cynomolgus, cynomolgus monkey, cornea, topical; JV-DE1; monkey; NIODP OD; 179.1 μg/eye; 0.5 h; read-out: Drug in OD Tissues, Cornea
observed_property: concentration at 0.5 h
Entry format: amount then unit.

Inquiry: Which concentration at 0.5 h value is on record for CC(C)Oc1ccc(Cc2ccc(NC3=NCCN3)cc2)cc1 ?
Reply text: 9300 ng/g

----------
assay: Biodisposition of JV-DE1 eye drops in New Zealand rabbits (LC-MS/MS of plasma and ocular tissues); assay type: in vivo; settings: New Zealand, bulbar conjunctiva, topical or ocular, 120 ug; rabbit; eye drop 120 µg/eye; read-out: Cmax in bulbar conjunctiva
observed_property: Cmax

Inquiry: Dear colleague, I am looking for the recorded Cmax of the following compound: CC(C)Oc1ccc(Cc2ccc(NC3=NCCN3)cc2)cc1
Reply text: ~16000 ng/g

----------
experiment: Biodisposition of JV-DE1 and JV-MD2 delivered via NIODP (periorbital skin) in non-human primates; type: in vivo, cynomolgus monkeys; settings: cynomolgus, cynomolgus monkey, retina, topical; JV-MD2; monkey; NIODP OS; 6747 μg/eye; 24 h; endogenous DHA 17 µg/g; read-out: Drug in OS Tissues, Retina
observed_property: concentration at 24 h (ng/g)
# number only, unit ng/g dropped from output

Inquiry: Requested field: concentration at 24 h. Item: CC/C=C\C/C=C\C/C=C\C/C=C\C/C=C\C/C=C\CCC(=O)O [JV-MD2, cis-4,7,10,13,16,19-docosahexaenoic acid]
Reply text: 47000

----------
assay: Biodisposition of JV-DE1 and JV-MD2 delivered via NIODP (periorbital skin) in non-human primates; type: in vivo, cynomolgus monkeys; settings: cynomolgus, cynomolgus monkey, cornea, topical; JV-DE1; monkey; NIODP OD; 159.3 μg/eye; 24 h; read-out: Drug in OD Tissues, Cornea
observed_property: concentration at 24 h
Reply with a number, then the unit it belongs to.

Inquiry: Requested read-out: concentration at 24 h. Entry: CC(C)Oc1ccc(Cc2ccc(NC3=NCCN3)cc2)cc1 [JV-DE1]
Reply text: 1620 ng/g

----------
assay: Biodisposition of JV-DE1 and JV-MD2 delivered via NIODP (periorbital skin) in non-human primates; assay type: in vivo, cynomolgus monkeys; details: cynomolgus, cynomolgus monkey, retina, topical, 165.3 µg per eye; JV-DE1; monkey; NIODP; read-out: retinal Cmax
observed_property: Cmax (nM)
Reply numerically in nM, unit not repeated.

Inquiry: # query: Cmax of entry CC(C)Oc1ccc(Cc2ccc(NC3=NCCN3)cc2)cc1
Reply text: 147

----------
test: Biodisposition of JV-DE1 eye drops in New Zealand rabbits (LC-MS/MS of plasma and ocular tissues); format: in vivo; conditions: New Zealand, anterior sclera, topical, 120 µg/eye; rabbit; single eye drop 120 μg/eye OD; 6 h; read-out: Drug in OD Tissues, Anterior sclera
observed_property: concentration at 6 h (ng/g)
Give the value, in units of ng/g, as a plain number.

Inquiry: Can you look up the measured concentration at 6 h of CC(C)Oc1ccc(Cc2ccc(NC3=NCCN3)cc2)cc1 for me?
Reply text: 1480

----------
assay: Biodisposition of JV-DE1 and JV-MD2 delivered via NIODP (periorbital skin) in non-human primates; format: in vivo, cynomolgus monkeys; conditions: cynomolgus, cynomolgus monkey, plasma, topical; JV-DE1 0.53% w/w; monkey; NIODP periorbital skin OD; 160.6 μg/eye; 3 h; read-out: Drug in plasma
observed_property: concentration at 3 h (ng/mL)
Please state the figure in ng/mL; there is no need to write the unit.

Inquiry: Need concentration at 3 h, item CC(C)Oc1ccc(Cc2ccc(NC3=NCCN3)cc2)cc1 [JV-DE1]
Reply text: 0.2

----------
test: Biodisposition of JV-DE1 and JV-MD2 delivered via NIODP (periorbital skin) in non-human primates; format: in vivo, cynomolgus monkeys; details: cynomolgus, cynomolgus monkey, retina, topical, 6775 µg per eye; JV-MD2; NHP; about 7 mg/eye via NIODP; read-out: retinal Cmax
observed_property: Cmax

Inquiry: For the compound CC/C=C\C/C=C\C/C=C\C/C=C\C/C=C\C/C=C\CCC(=O)O [JV-MD2, cis-4,7,10,13,16,19-docosahexaenoic acid] , what Cmax is on record?
Reply text: 338 µM

----------
test: Biodisposition of JV-DE1 and JV-MD2 delivered via NIODP (periorbital skin) in non-human primates; type: in vivo, cynomolgus monkeys; settings: cynomolgus, cynomolgus monkey, plasma, topical; JV-DE1 0.53% w/w; monkey; NIODP periorbital skin OD; 179.1 μg/eye; 0.5 h; read-out: Drug in plasma
observed_property: concentration at 0.5 h (ng/mL)
The answer is to be given in ng/mL; state only the numeric part.

Inquiry: # get_value(readout='concentration at 0.5 h', item= CC(C)Oc1ccc(Cc2ccc(NC3=NCCN3)cc2)cc1 )
Reply text: 0.1

----------
experiment: Biodisposition of JV-DE1 eye drops in New Zealand rabbits (LC-MS/MS of plasma and ocular tissues); type: in vivo; conditions: New Zealand, cornea, topical, 120 µg/eye; rabbit; single eye drop 120 μg/eye OD; 24 h; read-out: Drug in OD Tissues, Cornea
observed_property: concentration at 24 h (ng/g)
Please give a number only; it is taken to be in ng/g.

Inquiry: # input compound: CC(C)Oc1ccc(Cc2ccc(NC3=NCCN3)cc2)cc1 ; wanted: its concentration at 24 h
Reply text: 542
